Test system: HCT-116
Test: Antiproliferative activity against human HCT-116 cells assessed as inhibition of cell proliferation incubated for 72 hrs by CCK8 assay
Format: functional, cell-based
Settings: HCT-116, 72 h
valueKind: log10(IC50) (log10 of the value in µM)

{"columns": ["compound", "log10(IC50)"],
 "data": [
  ["CN1c2ccccc2C(=O)N2CCc3c([nH]c4ccc(NC(=O)C(N)Cc5ccc(O)cc5)cc34)C21 (stereo not drawn)", 0.10],
  ["CSCCC(N)C(=O)Nc1ccc2[nH]c3c(c2c1)CCN1C(=O)c2ccccc2N(C)C31 (stereo not drawn)", 0.20],
  ["CN1c2ccccc2C(=O)N2CCc3c([nH]c4ccc(NS(C)(=O)=O)cc34)C21 (stereo not drawn)", -0.34],
  ["CN1c2ccccc2C(=O)N2CCc3c([nH]c4ccc(OC(=O)[C@@H](N)COCc5ccccc5)cc34)C21 (stereo partly drawn)", -1.68],
  ["CC(O)C(N)C(=O)Nc1ccc2[nH]c3c(c2c1)CCN1C(=O)c2ccccc2N(C)C31 (stereo not drawn)", 0.20],
  ["CN1c2ccccc2C(=O)N2CCc3c([nH]c4ccc(NC(=O)C(N)Cc5ccccc5)cc34)C21 (stereo not drawn)", 0.64],
  ["CN1c2ccccc2C(=O)N2CCc3c([nH]c4ccc(NC(=O)CN)cc34)C21 (stereo not drawn)", 0.20],
  ["CN1c2ccccc2C(=O)N2CCc3c([nH]c4ccc(NC(=O)C(N)CO)cc34)C21 (stereo not drawn)", 0.28],
  ["CN1c2ccccc2C(=O)N2CCc3c([nH]c4ccc(OC(=O)[C@@H]5CCCN5)cc34)C21 (stereo partly drawn)", -2.15],
  ["CN1c2ccccc2C(=O)N2CCc3c([nH]c4ccc(NC(=O)C(N)Cc5c[nH]c6ccccc56)cc34)C21 (stereo not drawn)", 0.23],
  ["CN1c2ccccc2C(=O)N2CCc3c([nH]c4ccc(OS(N)(=O)=O)cc34)C21 (stereo not drawn)", -1.40],
  ["CNCC(=O)Nc1ccc2[nH]c3c(c2c1)CCN1C(=O)c2ccccc2N(C)C31 (stereo not drawn)", 0.15],
  ["CC[C@@]1(O)C(=O)OCc2c1cc1n(c2=O)Cc2cc3ccccc3nc2-1 [CAMPTOTHECIN]", -1.77],
  ["CN1c2ccccc2C(=O)N2CCc3c([nH]c4ccc(NC(=O)C(N)CCC(N)=O)cc34)C21 (stereo not drawn)", 0.76],
  ["CC(N)C(=O)Nc1ccc2[nH]c3c(c2c1)CCN1C(=O)c2ccccc2N(C)C31 (stereo not drawn)", -0.03],
  ["CN1c2ccccc2C(=O)N2CCc3c([nH]c4ccc(NS(N)(=O)=O)cc34)C21 (stereo not drawn)", 0.04],
  ["CN1c2ccccc2C(=O)N2CCc3c([nH]c4ccc(NC(=O)CCC(=O)O)cc34)C21 (stereo not drawn)", 0.15],
  ["CN1c2ccccc2C(=O)N2CCc3c([nH]c4ccc(OP(=O)(O)O)cc34)C21 (stereo not drawn)", -1.18],
  ["CN1c2ccccc2C(=O)N2CCc3c([nH]c4ccc(N)cc34)C21 (stereo not drawn)", -0.41]
]}

* * *

Measured half-life of individual entries
Experiment: Half life in mouse liver microsomes
Assay type: ADME, Microsome
valueKind: half-life (min)

{"columns": ["compound", "valueKind", "measValue"],
 "data": [
  ["CN1c2ccccc2C(=O)N2CCc3c([nH]c4ccc(O)cc34)[C@H]21", "half-life", 14.3],
  ["CN1c2ccccc2C(=O)N2CCc3c([nH]c4ccc(OP(=O)(O)O)cc34)C21 (configuration not stated)", "half-life", 58.4]
]}

* * *

Measured IC50 of individual entries
Tested on: A549
Test: Antiproliferative activity against human A549 cells assessed as inhibition of cell proliferation incubated for 72 hrs by CCK8 assay
Format: functional, cell-based
Settings: A549, 72 h

{"columns": ["molecule", "systemName", "IC50"],
 "data": [
  ["CC[C@@]1(O)C(=O)OCc2c1cc1n(c2=O)Cc2cc3ccccc3nc2-1 [CAMPTOTHECIN]", "A549", "170 nM"],
  ["CN1c2ccccc2C(=O)N2CCc3c([nH]c4ccc(NC(=O)C5CCCN5)cc34)C21 (stereo not given)", "A549", "> 10000 nM"],
  ["CC(O)C(N)C(=O)Nc1ccc2[nH]c3c(c2c1)CCN1C(=O)c2ccccc2N(C)C31 (stereo not given)", "A549", "> 10000 nM"],
  ["CN1c2ccccc2C(=O)N2CCc3c([nH]c4ccc(NC(=O)C(N)Cc5ccc(O)cc5)cc34)C21 (stereo not given)", "A549", "> 10000 nM"],
  ["CN1c2ccccc2C(=O)N2CCc3c([nH]c4ccc(O)cc34)[C@H]21", "A549", "280 nM"]
]}

* * *

Biological target: DNA topoisomerase 2-alpha (Homo sapiens)
Experiment: Inhibition of TOP2 (unknown origin) assessed as formation of short DNA fragments using supercoiled plasmid DNA at 100 uM by ethidium bromide staining based gel
Activity calls are given as the source filed them. No cut-off for these calls is given here.
Possible outcomes: 1 (yes) (active), 0 (no) (inactive)

{"columns": ["molecule", "class"],
 "data": [
  ["CN1c2ccccc2C(=O)N2CCc3c([nH]c4ccc(NS(C)(=O)=O)cc34)C21 (stereo not given)", "1 (yes)"],
  ["CN1c2ccccc2C(=O)N2CCc3c([nH]c4ccc(NC(=O)CN)cc34)C21 (stereo not given)", "1 (yes)"],
  ["CSCCC(N)C(=O)Nc1ccc2[nH]c3c(c2c1)CCN1C(=O)c2ccccc2N(C)C31 (stereo not given)", "1 (yes)"],
  ["CN1c2ccccc2C(=O)N2CCc3c([nH]c4ccc(OC(=O)CCC(=O)O)cc34)C21 (stereo not given)", "0 (no)"],
  ["CN1c2ccccc2C(=O)N2CCc3c([nH]c4ccc(OC(=O)[C@@H](N)CO)cc34)C21 (stereo not given in full)", "1 (yes)"]
]}

* * *

Measured IC50 of individual entries
Tested on: A549
Assay: Antiproliferative activity against human A549 cells assessed as inhibition of cell proliferation incubated for 72 hrs by CCK8 assay
Format: functional, cell-based
Settings: A549, 72 h

{"columns": ["compound", "comparisonSign", "IC50 [µM]"],
 "data": [
  ["CN1c2ccccc2C(=O)N2CCc3c([nH]c4ccc(NC(=O)C(N)CO)cc34)C21 (stereo not given)", "=", 6.3],
  ["CN1c2ccccc2C(=O)N2CCc3c([nH]c4ccc(OC(=O)CCC(=O)OCCN5CCOCC5)cc34)C21 (stereo not given)", ">", 10],
  ["CN1c2ccccc2C(=O)N2CCc3c([nH]c4ccc(NC(=O)CN)cc34)C21 (stereo not given)", "=", 3.7],
  ["CN1c2ccccc2C(=O)N2CCc3c([nH]c4ccc(N)cc34)C21 (stereo not given)", "=", 4.8],
  ["CN1c2ccccc2C(=O)N2CCc3c([nH]c4ccc(NC(=O)C5CCC(=O)N5)cc34)C21 (stereo not given)", ">", 10]
]}

* * *

Molecular target: Tubulin
Test: Inhibition of tubulin polymerization (unknown origin)
pIC50: −log10 of the molar value.

{"columns": ["compound", "pIC50"],
 "data": [
  ["CN1c2ccccc2C(=O)N2CCc3c([nH]c4ccc(OP(=O)(O)O)cc34)C21 (stereo unspecified)", 4.50]
]}

* * *

Assay: Solubility of the compound in double distilled water
Type: physicochemical
Measured solubility of individual entries

{"columns": ["compound", "solubility / µg/mL"],
 "data": [
  ["CN1c2ccccc2C(=O)N2CCc3c([nH]c4ccc(NC(=O)C5CCC(=O)N5)cc34)C21 (stereo not drawn)", 11],
  ["CN1c2ccccc2C(=O)N2CCc3c([nH]c4ccc(NC(=O)C(N)CO)cc34)C21 (stereo not drawn)", 20],
  ["CN1c2ccccc2C(=O)N2CCc3c([nH]c4ccc(NC(=O)C(N)Cc5ccc(O)cc5)cc34)C21 (stereo not drawn)", 12],
  ["CN1c2ccccc2C(=O)N2CCc3c([nH]c4ccc(NC(=O)C(N)CCC(N)=O)cc34)C21 (stereo not drawn)", 14],
  ["CN1c2ccccc2C(=O)N2CCc3c([nH]c4ccc(NS(C)(=O)=O)cc34)C21 (stereo not drawn)", 29],
  ["CN1c2ccccc2C(=O)N2CCc3c([nH]c4ccc(OC(=O)[C@@H](N)CO)cc34)C21 (stereo partly drawn)", 24],
  ["CN1c2ccccc2C(=O)N2CCc3c([nH]c4ccc(N)cc34)C21 (stereo not drawn)", 10],
  ["CN1c2ccccc2C(=O)N2CCc3c([nH]c4ccc(OP(=O)(O)O)cc34)C21 (stereo not drawn)", 36],
  ["CN1c2ccccc2C(=O)N2CCc3c([nH]c4ccc(NC(=O)C5CCCN5)cc34)C21 (stereo not drawn)", 15],
  ["CN1c2ccccc2C(=O)N2CCc3c([nH]c4ccc(OS(N)(=O)=O)cc34)C21 (stereo not drawn)", 37],
  ["CN1c2ccccc2C(=O)N2CCc3c([nH]c4ccc(NC(=O)C(N)Cc5ccccc5)cc34)C21 (stereo not drawn)", 16],
  ["CC(C)CC(N)C(=O)Nc1ccc2[nH]c3c(c2c1)CCN1C(=O)c2ccccc2N(C)C31 (stereo not drawn)", 14],
  ["CN1c2ccccc2C(=O)N2CCc3c([nH]c4ccc(NC(=O)CN)cc34)C21 (stereo not drawn)", 19],
  ["CN1c2ccccc2C(=O)N2CCc3c([nH]c4ccc(NS(N)(=O)=O)cc34)C21 (stereo not drawn)", 23],
  ["CN1c2ccccc2C(=O)N2CCc3c([nH]c4ccc(OC(=O)CCC(=O)O)cc34)C21 (stereo not drawn)", 15],
  ["CN1c2ccccc2C(=O)N2CCc3c([nH]c4ccc(NC(=O)CCC(=O)O)cc34)C21 (stereo not drawn)", 16],
  ["CN1c2ccccc2C(=O)N2CCc3c([nH]c4ccc(OC(=O)[C@@H](N)COCc5ccccc5)cc34)C21 (stereo partly drawn)", 12],
  ["CC(C)[C@H](N)C(=O)Oc1ccc2[nH]c3c(c2c1)CCN1C(=O)c2ccccc2N(C)C31 (stereo partly drawn)", 18]
]}
